Hello, the source for this data is ChEMBL document CHEMBL6120993, in case you need it.

Listing of entries alongside the reported IC50.
- experimental.details: Inhibition of seed bug sodium/potassium-ATPase incubated for 20 mins by Spectrophotometric analysis
- Set-up: species or system Oncopeltus fasciatus
Please give a number only; it is taken to be in µM.

Some solved cases for reference:
{"mol.smiles": "C[C@@H]1C[C@@H](O[C@@H]2O[C@H](CO)[C@@H](O)[C@H](O)[C@H]2O)[C@]2(O)O[C@@H]3C[C@@]4(C)[C@@H](C[C@@H]5O[C@]56[C@@H]4[C@H](O)C(=O)[C@]4(C)[C@@H](C5=CC(=O)OC5)CC[C@]64O)C[C@H]3O[C@@H]2O1", "unit.text": "µM", "IC50": 640}
{"mol.smiles": "C[C@H]1O[C@@H](O[C@H]2CC[C@@]3(C)[C@@H](CC[C@@H]4[C@@H]3C[C@@H](O)[C@]3(C)[C@@H](C5=CC(=O)OC5)CC[C@]43O)C2)[C@H](O)[C@H](O)[C@@H]1O[C@@H]1O[C@H](CO)[C@@H](O)[C@H](O)[C@H]1O", "unit.text": "µM", "IC50": 220}
{"mol.smiles": "C[C@H]1O[C@@H](O[C@H]2CC[C@@]3(C)[C@H](C2)C[C@@H]2O[C@]24[C@@H]3C[C@@H](O)[C@]2(C)[C@@H](C3=CC(=O)OC3)CC[C@@]24O)[C@H](O)[C@H](O)[C@@H]1O", "unit.text": "µM", "IC50": 1080}

### Prompt Query (compound): `C[C@H]1O[C@@H](O[C@H]2CC[C@@]3(C)[C@H](C2)C[C@@H]2O[C@]24[C@@H]3CC[C@]2(C)[C@@H](C3=CC(=O)OC3)CC[C@]42O)[C@H](O)[C@H](O)[C@@H]1O[C@@H]1O[C@H](CO)[C@@H](O)[C@H](O)[C@H]1O` ; field requested: IC50
### Response 830
